Just for reference, paper PMC9993459 is where these values come from.

Target Under Test: UniProt:P36888
Sequence (P36888 27-993): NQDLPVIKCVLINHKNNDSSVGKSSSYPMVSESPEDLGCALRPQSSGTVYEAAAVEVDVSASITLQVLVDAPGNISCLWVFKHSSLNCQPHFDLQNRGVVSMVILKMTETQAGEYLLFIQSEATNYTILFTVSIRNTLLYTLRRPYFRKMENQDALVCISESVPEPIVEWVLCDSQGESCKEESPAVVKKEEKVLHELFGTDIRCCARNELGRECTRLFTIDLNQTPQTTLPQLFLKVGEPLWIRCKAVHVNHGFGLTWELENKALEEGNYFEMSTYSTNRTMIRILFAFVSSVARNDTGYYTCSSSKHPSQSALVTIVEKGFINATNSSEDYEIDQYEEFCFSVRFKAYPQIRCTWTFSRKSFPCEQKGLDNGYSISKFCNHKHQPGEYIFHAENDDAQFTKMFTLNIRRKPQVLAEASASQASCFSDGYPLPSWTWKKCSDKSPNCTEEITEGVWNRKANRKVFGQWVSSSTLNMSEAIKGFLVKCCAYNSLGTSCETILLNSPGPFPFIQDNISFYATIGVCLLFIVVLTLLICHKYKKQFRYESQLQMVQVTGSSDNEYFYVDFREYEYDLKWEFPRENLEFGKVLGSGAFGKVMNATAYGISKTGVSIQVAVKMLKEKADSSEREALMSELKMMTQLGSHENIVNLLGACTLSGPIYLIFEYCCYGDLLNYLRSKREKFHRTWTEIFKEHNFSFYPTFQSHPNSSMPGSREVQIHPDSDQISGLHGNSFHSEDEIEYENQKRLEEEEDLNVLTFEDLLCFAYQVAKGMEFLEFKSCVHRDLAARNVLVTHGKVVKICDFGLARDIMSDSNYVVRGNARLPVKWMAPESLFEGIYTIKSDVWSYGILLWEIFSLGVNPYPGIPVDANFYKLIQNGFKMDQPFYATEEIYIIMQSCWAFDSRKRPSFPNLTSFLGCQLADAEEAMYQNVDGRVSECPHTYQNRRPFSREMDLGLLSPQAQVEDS
Property Name: pIC50
Numbers only, as −log10 of the molar value.

// sample `Cc1nn(-c2ccnc(Nc3ccc4c(c3)c(C(=O)C3CC3)cn4C)n2)cc1CN1C[C@H](O)CO1` , its pIC50 was 5.75
